Target: RXRα (Homo sapiens, UniProt P19793)
Construct: pFA-CMV-hRXRα-LBD
Sequence (P19793 227-458 limits assumed): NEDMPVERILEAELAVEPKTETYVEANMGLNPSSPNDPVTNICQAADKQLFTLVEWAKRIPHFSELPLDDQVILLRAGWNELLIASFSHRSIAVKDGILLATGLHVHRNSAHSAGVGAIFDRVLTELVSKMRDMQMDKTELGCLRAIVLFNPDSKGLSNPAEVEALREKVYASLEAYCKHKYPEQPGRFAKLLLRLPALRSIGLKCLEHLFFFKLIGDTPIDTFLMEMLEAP
Experiment: Gal4-hybrid reporter gene assay, RXRα
Details: Gal4-hybrid reporter gene assay; mean±S.E.M., n≥3
// reported pEC50 for each item listed
Note: pEC50 values are expressed as the negative base-10 logarithm of concentration in M.

smiles str | pEC50
CC1=C2[C@H](/C=C(\C)C(=O)O)CC[C@@H](C)[C@H]2CC1 | 4.57
Cc1c(C)n(-c2ccc(CC(=O)O)cc2)c2ccc(F)cc12 | 6.40

Which pEC50 value is on record for "Cc1c2c(n(-c3ccc(CC(=O)O)cc3)c1C)CCC(F)(F)C2" ? 6.01

====

Molecular target: Nurr1 (Homo sapiens, UniProt P43354)
Construct: pFA-CMV-hNurr1-LBD
Sequence (P43354 360-595 limits assumed): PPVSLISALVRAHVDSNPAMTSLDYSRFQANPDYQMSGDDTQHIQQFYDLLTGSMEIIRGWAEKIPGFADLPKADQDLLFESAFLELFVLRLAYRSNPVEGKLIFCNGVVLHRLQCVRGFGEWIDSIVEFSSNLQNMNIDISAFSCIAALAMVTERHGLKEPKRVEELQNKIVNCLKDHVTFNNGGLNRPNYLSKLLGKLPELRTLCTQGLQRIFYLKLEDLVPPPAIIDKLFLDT
Assay: Gal4-hybrid reporter gene assay, Nurr1
Details: Gal4-hybrid reporter gene assay; mean±S.E.M., n≥3
readout: pEC50
Note: pEC50 values are expressed as the negative base-10 logarithm of concentration in M.

Use these answered entries as a reference point.
smiles str | pEC50
Cc1c(C)n(-c2ccc(CC(=O)O)cc2)c2ccc(F)cc12 | 5.66
Cc1c2c(n(-c3ccc(CC(=O)O)cc3)c1C)CCC(F)(F)C2 | 5.59

Kindly review the next compound as well.
Provide value of pEC50 for this record tested with Nurr1 (Homo sapiens, UniProt P43354): "CC1=C2[C@H](/C=C(\C)C(=O)O)CC[C@@H](C)[C@H]2CC1" 5.52

====

// reported EC50 for each item listed
Molecular target: RXRβ (Homo sapiens)
Construct: CMV-hRXRβ-LBD
Sequence (P28702 296-529 limits assumed): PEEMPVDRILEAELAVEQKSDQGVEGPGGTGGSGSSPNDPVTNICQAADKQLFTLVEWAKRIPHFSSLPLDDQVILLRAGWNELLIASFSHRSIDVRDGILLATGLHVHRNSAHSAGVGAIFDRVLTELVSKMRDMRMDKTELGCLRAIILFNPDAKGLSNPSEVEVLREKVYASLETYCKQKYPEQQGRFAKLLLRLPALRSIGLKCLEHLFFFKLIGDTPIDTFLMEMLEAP
Assay: Gal4-hybrid reporter gene assay, RXRβ
Settings: Gal4-hybrid reporter gene assay; mean±S.E.M., n≥3
Write the value in µM as a bare number.

Use these answered entries as a reference point.
smiles str | EC50, µM
Cc1c2c(n(-c3ccc(CC(=O)O)cc3)c1C)CCC(F)(F)C2 | 4.5
CC1=C2[C@H](/C=C(\C)C(=O)O)CC[C@@H](C)[C@H]2CC1 | 5.2

Which EC50 value is on record for "Cc1c(C)n(-c2ccc(CC(=O)O)cc2)c2ccc(F)cc12" ? 0.6

====

// reported pEC50 for each item listed
Biological target: Nurr1:RXR heterodimer (DR5) (Homo sapiens, UniProt P19793+P43354)
Construct: full-length human nuclear receptor Nurr1 encoded by pcDNA3.1 -hNurr1-NE; full length human RXRα encoded by pSG5-hRXR
Sequence (P43354 whole entry): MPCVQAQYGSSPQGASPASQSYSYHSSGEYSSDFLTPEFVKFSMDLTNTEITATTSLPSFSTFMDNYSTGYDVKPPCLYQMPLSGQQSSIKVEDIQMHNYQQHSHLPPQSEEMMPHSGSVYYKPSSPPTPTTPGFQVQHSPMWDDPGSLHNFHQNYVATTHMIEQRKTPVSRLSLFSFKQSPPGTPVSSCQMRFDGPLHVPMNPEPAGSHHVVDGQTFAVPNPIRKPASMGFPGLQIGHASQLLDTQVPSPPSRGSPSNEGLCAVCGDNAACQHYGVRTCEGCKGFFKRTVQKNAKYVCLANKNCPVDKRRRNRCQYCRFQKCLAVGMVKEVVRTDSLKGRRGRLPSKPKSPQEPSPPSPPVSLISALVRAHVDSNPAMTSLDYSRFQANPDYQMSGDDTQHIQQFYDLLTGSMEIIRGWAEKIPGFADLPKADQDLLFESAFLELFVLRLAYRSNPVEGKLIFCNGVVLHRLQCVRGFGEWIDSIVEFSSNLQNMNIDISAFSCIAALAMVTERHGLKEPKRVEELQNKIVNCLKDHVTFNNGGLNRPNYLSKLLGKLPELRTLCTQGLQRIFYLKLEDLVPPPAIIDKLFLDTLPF
Sequence (P19793 whole entry): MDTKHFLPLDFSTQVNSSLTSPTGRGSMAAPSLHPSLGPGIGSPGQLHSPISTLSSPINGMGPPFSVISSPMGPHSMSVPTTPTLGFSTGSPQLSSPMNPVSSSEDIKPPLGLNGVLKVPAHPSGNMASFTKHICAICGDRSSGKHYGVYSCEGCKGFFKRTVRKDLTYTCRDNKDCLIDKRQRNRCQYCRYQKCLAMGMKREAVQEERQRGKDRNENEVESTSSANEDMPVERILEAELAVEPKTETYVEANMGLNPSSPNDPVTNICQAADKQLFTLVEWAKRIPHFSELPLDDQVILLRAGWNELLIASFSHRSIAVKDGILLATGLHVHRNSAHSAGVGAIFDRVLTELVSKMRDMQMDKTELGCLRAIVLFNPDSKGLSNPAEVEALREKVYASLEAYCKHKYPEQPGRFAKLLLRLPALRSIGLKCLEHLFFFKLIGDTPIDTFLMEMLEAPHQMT
Experiment: Full-length Nurr1 reporter gene assay, heterodimer response element DR5
Details: read-out: EC50, activation of the Nurr1:RXR heterodimer (DR5)
Note: pEC50 values are expressed as the negative base-10 logarithm of concentration in M.

compound | target entity | pEC50
Cc1c2c(n(-c3ccc(CC(=O)O)cc3)c1C)CCC(F)(F)C2 [compound 2] | Nurr1:RXR heterodimer (DR5) (Homo sapiens, UniProt P19793+P43354) | 6.00

Kindly review the next compound as well.
Which pEC50 value is on record for Cc1c(C)n(-c2ccc(CC(=O)O)cc2)c2ccc(F)cc12 [compound 3] ? 6.22

These data points were gathered from paper PMC7618597.
